Molecular target: T1, hERα-LBD (ligand binding domain of estrogen receptor α) (human, UniProt P03372 297-554)
T1 construct: Assayed with estradiol, diethylstilbestrol, genistein or tamoxifen present; the ligand is named under assay in each row
T1 sequence (looked up): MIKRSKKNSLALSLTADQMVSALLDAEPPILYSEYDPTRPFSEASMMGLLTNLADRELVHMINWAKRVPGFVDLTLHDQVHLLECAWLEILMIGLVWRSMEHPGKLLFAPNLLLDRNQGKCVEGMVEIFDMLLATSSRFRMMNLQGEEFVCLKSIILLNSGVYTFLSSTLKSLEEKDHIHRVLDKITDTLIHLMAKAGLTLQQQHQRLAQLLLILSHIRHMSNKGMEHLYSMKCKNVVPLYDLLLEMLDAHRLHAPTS
Assay: fluorescence polarization, hERα-LBD titrated, estradiol present; repeats Table 4; 100 may stand for above the assay limits
Ends that are not written are not given here.
Quantity measured: Kd (µM)
// units = µM; emit number, no label

Entry C(5‑iodoacetamidofluorescein)KKENNALLRYLLDRDDPSD [SRC3-3 coregulator peptide] , Kd reported as 100
